# test description: solvent given as SMILES
# conditions: in C1CCOC1

| smiles entry | emission maximum |
| --- | --- |
| COc1ccc(C2=C3C=CC(C)=[N+]3[B-](F)(F)n3c(C)ccc32)cc1 | 521 nm |
| COc1cc(OC)cc(C2=C3C(C)=C(I)C(/C=C/c4c[nH]c5ccc([N+](=O)[O-])cc45)=[N+]3[B-](F)(F)n3c(/C=C/c4c[nH]c5ccc([N+](=O)[O-])cc45)c(I)c(C)c32)c1 | 720 nm |
| CC(=O)c1c2c(cc3ccc(N(C)C)cc13)CCC2 | 497 nm |
| CC1(C)c2ccccc2N(c2cc3c4ccccc4n4c5ccccc5c(c2)c34)c2ccccc21 | 470.91 nm |

###

# emission maximum values compiled below
# test description: solvent given as SMILES
# conditions: in CCOC(C)=O

| smiles entry | value unit | emission maximum |
| --- | --- | --- |
| O=CN1N=C(c2ccc(Br)cc2)C[C@@H]1c1ccccc1 | nm | 350 |
| Cn1c(=O)c(/N=N/c2cc(S(=O)(=O)O)ccc2C(=O)O)c(O)c2ccccc21 | nm | 528 |
| CCn1c2ccccc2c2cc(-c3cc(-c4ccc5c(c4)c4ccccc4n5CC)ncn3)ccc21 | nm | 392 |
| CC(C)(C)c1ccc(-c2nc3c4ccc(-c5cc6ccccc6c6ccccc56)cc4c4cc(-c5cc6ccccc6c6ccccc56)ccc4c3n2-c2ccc(C(C)(C)C)cc2)cc1 | nm | 388 |
| CCN(CC)c1ccc2cc(-c3cn4ccccc4n3)c(=O)oc2c1 | nm | 468 |

###

# test description: solvent given as SMILES
# conditions: in ClCCl
Items are presented alongside their recorded emission maximum.
observation type: emission maximum (nm)

| molecule | observation type | value unit | quantitative result |
| --- | --- | --- | --- |
| CCCCCCN1C(=O)c2cccc3c(-c4ccc(-c5cc(-c6ccc(Cl)cc6)nn5-c5ccccc5)s4)ccc(c23)C1=O | emission maximum | nm | 519 |
| CC1=C(c2ccc(N(c3ccccc3)c3ccccc3)cc2)C(C)=[N+]2C1=C(c1c(-c3ccccn3)nc3ccccn13)c1c(C)c(-c3ccc(N(c4ccccc4)c4ccccc4)cc3)c(C)n1[B-]2(F)F | emission maximum | nm | 709 |
| COc1ccc(-c2cc3c(ccc4sc5ccc6sc(-c7ccc(C#N)cc7)cc6c5c43)s2)cc1 | emission maximum | nm | 469 |
| CCn1c2ccc(/C=C(\C#N)c3ccccc3)cc2c2cc(/C=C(\C#N)c3ccccc3)ccc21 | emission maximum | nm | 412 |
| O=Cc1ccc(C2=Cc3ccccc3P2(=O)c2ccccc2)cc1 (configuration not stated) | emission maximum | nm | 427 |
| CCCCCCCCCCCCN1C(=O)c2c(c3ccc4cc(-c5ccc(Cl)cc5)c(OC)cc4c3c3c2ccc2cc(-c4ccc(Cl)cc4)c(OC)cc23)C1=O | emission maximum | nm | 526 |
| CC(C)(C)c1ccc(-c2cc(-c3ccc(-c4cc(-c5ccc(C(C)(C)C)cc5)c(C(=O)NC5CCCCC5)s4)s3)sc2C(=O)NC2CCCCC2)cc1 | emission maximum | nm | 448 |

###

Reported emission maximum values are given for each entry in this list.
# test description: solvent given as SMILES
# conditions: in CCOC(C)=O

| smiles entry | value unit | emission maximum |
| --- | --- | --- |
| O=C1Nc2ccccc2/C1=C/C(=O)c1ccc(O)cc1 | nm | 398 |
| CCn1c2ccccc2c2cc(C#Cc3cc(C#Cc4ccc5c(c4)c4ccccc4n5CC)nc(C#N)n3)ccc21 | nm | 494 |
| Cc1ccc(-c2cc(-c3ccccc3)c(C#N)c(=S)[nH]2)cc1 | nm | 522 |
| Cc1cc(C)cc(NC(=O)c2sc(Br)nc2C)c1 | nm | 405.5 |
| COc1ccc(C2=C3C=c4c(oc5cc6c(cc45)[C@H]4CC[C@]5(C)C(=O)CC[C@H]5[C@@H]4CC6)=[N+]3[B-](F)(F)n3c2cc2c4cc5c(cc4oc23)CC[C@@H]2[C@@H]5CC[C@]3(C)C(=O)CC[C@@H]23)cc1 | nm | 615 |
| c1ccc(-n2c(-c3ccc(-c4ccc(-c5ccc(-c6nc7c8ccccc8c8ccccc8c7n6-c6ccccc6)cc5)cc4)cc3)nc3ccccc32)cc1 | nm | 425 |
| CC1=[N+]2C(=C(c3cccs3)c3ccc(C)n3[B-]2(F)F)C=C1c1cc2n(c1)[B-](F)(F)[N+]1=CC=CC1=C2c1c(C)cc(C)cc1C | nm | 670 |
| COc1ccc(C2=C3C=CC(C)=[N+]3[B-](F)(F)n3c(C)ccc32)cc1 | nm | 518 |
| C#CCNC1=C2C=CC=[N+]2[B-](F)(F)n2cccc21 | nm | 469.5 |
| CN(C)c1ccc(C2=Cc3ccc4ccccc4[n+]3[B-](F)(F)O2)cc1 | nm | 534 |
| CCC1=C(C)C2=Cc3cccn3[B-](F)(F)[N+]2=C1C | nm | 516.5 |
| CCCCCCN(c1ccccc1)c1ccc2c(c1)C(CC)(CC)c1cc(/C=C/c3ccc(/C=C(\C#N)C(=O)O)s3)ccc1-2 | nm | 654 |
| CC(C)CCCCN1CCc2c1ccc1c3c(ccc21)CCCC3=O | nm | 586 |
| O=S(=O)([O-])c1ccc(O)c2ccccc12 | nm | 354 |
| CC1=CC(C)=[N+]2C1=Cc1c3ccccc3c(C#Cc3ccc(F)cc3)n1[B-]2(F)F | nm | 617 |
| O=C(/C=C/c1cn(-c2ccccc2)nc1-c1ccccc1)c1c(O)c2ccccc2oc1=O | nm | 487 |
| CN(C)c1ccc(C2=Cc3c4ccccc4c4ccccc4[n+]3[B-](F)(F)O2)cc1 | nm | 536 |
| CC1(C)CC(/C=C/c2cn(-c3ccccc3)nc2-c2ccccc2)=CC(=C(C#N)C#N)C1 | nm | 564 |
| COc1cccc2cc(-c3cc4cccc(OC)c4oc3=O)oc12 | nm | 460 |
